System: MRSA USA400 (NRS123)
Experiment Notes: multi-step resistance selection
Type: cell-based, Staphylococcus aureus
Applied Conditions: MRSA USA400 (NRS123), fourteen passages over two weeks

# Structure As Smiles, increase in MIC after fourteen passages
records = [
    ("C/C(=N\\NC(=N)N)c1ccc(NC(=O)Nc2ccc(OC3CCCCCC3)cc2)cc1", "No increase"),
    ("C/C(=N\\NC(=N)N)c1ccc(NC(=O)Nc2ccc(OCCC(C)C)cc2)cc1", "No increase"),
]

###

Tested on: MRSA USA400 (NRS123)
Experiment Notes: MIC in presence and absence of human serum albumin
Assay type: cell-based, Staphylococcus aureus
Applied Conditions: Staphylococcus aureus; TSB, 4% human serum albumin; read-out: MIC vs. MRSA USA400 (+HSA)
Outcome Measure: MIC (µg/mL)
Just the number please, in µg/mL, no unit attached.

Please state recorded MIC (tested on MRSA USA400 (NRS123)) of CC(=O)NC[C@H]1CN(c2ccc(N3CCOCC3)c(F)c2)C(=O)O1 [Linezolid, linezolid, reference compound] 1

Please state recorded MIC (tested on MRSA USA400 (NRS123)) of C/C(=N\NC(=N)N)c1ccc(NC(=O)Nc2ccc(OC3CCCCCC3)cc2)cc1 128

Please state recorded MIC (tested on MRSA USA400 (NRS123)) of CCCCCCCCCC(=O)N[C@@H](Cc1c[nH]c2ccccc12)C(=O)N[C@H](CC(N)=O)C(=O)N[C@@H](CC(=O)O)C(=O)N[C@@H]1C(=O)NCC(=O)N[C@@H](CCCN)C(=O)N[C@@H](CC(=O)O)C(=O)N[C@H](C)C(=O)N[C@@H](CC(=O)O)C(=O)NCC(=O)N[C@H](CO)C(=O)N[C@@H]([C@H](C)CC(=O)O)C(=O)N[C@@H](CC(=O)c2ccccc2N)C(=O)O[C@@H]1C [Daptomycin, daptomycin, reference compound] 64

Please state recorded MIC (tested on MRSA USA400 (NRS123)) of C/C(=N\NC(=N)N)c1ccc(NC(=O)Nc2ccc(OCCC(C)C)cc2)cc1 32

###

Experiment Notes: aqueous solubility assessment (turbidity)
Type: physicochemical
Applied Conditions: aqueous buffer, kinetic from dmso stock
Task for the reader: assign each of the following molecules its reported solubility at 2 h.
Could you kindly put the unit after your number?

Requested read-out: solubility at 2 h. Entry: C/C(=N\NC(=N)N)c1ccc(NC(=O)Nc2ccc(OC3CCCCCC3)cc2)cc1 [compound 2] 0.00515 mg/mL

Requested read-out: solubility at 2 h. Entry: C/C(=N\NC(=N)N)c1ccc(NC(=O)Nc2ccc(OCCC(C)C)cc2)cc1 [compound 1] 0.0239 mg/mL
